- Species: Homo sapiens
- assayProcedure: Stability in human plasma
For each record, write down the corresponding half-life.
Answers are plain numbers, in h.

Solved cases (5 shown):
Recall and state the measured half-life for `CC(=O)O[C@@]12CO[C@@H]1C[C@H](O)[C@@]1(C)C(=O)[C@H](O)C3=C(C)[C@@H](OC(=O)[C@H](OC(=O)C[C@@H](O)C(=O)O)[C@@H](NC(=O)OC(C)(C)C)c4ccccc4)C[C@@](O)([C@@H](OC(=O)c4ccccc4)[C@H]21)C3(C)C` .
4

Recall and state the measured half-life for `CC(=O)O[C@@]12CO[C@@H]1C[C@H](O)[C@@]1(C)C(=O)[C@H](O)C3=C(C)[C@@H](OC(=O)[C@H](OC(=O)C[C@@H](O)C(=O)[O-])[C@@H](NC(=O)OC(C)(C)C)c4ccccc4)C[C@@](O)([C@@H](OC(=O)c4ccccc4)[C@H]21)C3(C)C.[Na+]` .
3

Recall and state the measured half-life for CC(=O)O[C@@]12CO[C@@H]1C[C@H](O)[C@@]1(C)C(=O)[C@H](O)C3=C(C)[C@@H](OC(=O)[C@H](OC(=O)CC(O)C(=O)O)[C@@H](NC(=O)OC(C)(C)C)c4ccccc4)C[C@@](O)([C@@H](OC(=O)c4ccccc4)[C@H]21)C3(C)C (stereo partly specified) .
4

Recall and state the measured half-life for `CC(=O)O[C@@]12CO[C@@H]1C[C@H](O)[C@@]1(C)C(=O)[C@H](O)C3=C(C)[C@@H](OC(=O)[C@H](OC(=O)C[C@H](O)C(=O)O)[C@@H](NC(=O)OC(C)(C)C)c4ccccc4)C[C@@](O)([C@@H](OC(=O)c4ccccc4)[C@H]21)C3(C)C` .
4

Recall and state the measured half-life for `CC(=O)O[C@@]12CO[C@@H]1C[C@H](O)[C@@]1(C)C(=O)[C@H](O)C3=C(C)[C@@H](OC(=O)[C@H](OC(=O)C[C@H](O)C(=O)[O-])[C@@H](NC(=O)OC(C)(C)C)c4ccccc4)C[C@@](O)([C@@H](OC(=O)c4ccccc4)[C@H]21)C3(C)C.[Na+]` .
3

Now take the following molecule into account.
Recall and state the measured half-life for CC(=O)O[C@@]12CO[C@@H]1C[C@H](O)[C@@]1(C)C(=O)[C@H](O)C3=C(C)[C@@H](OC(=O)[C@H](OC(=O)CC(O)C(=O)[O-])[C@@H](NC(=O)OC(C)(C)C)c4ccccc4)C[C@@](O)([C@@H](OC(=O)c4ccccc4)[C@H]21)C3(C)C.[Na+] (mixture of isomers) .
3
